- Target Desc: Delta-5-Desaturase (D5D) (Homo sapiens (Human), UniProt O60427)
- Sequence (O60427 whole entry, species assumed): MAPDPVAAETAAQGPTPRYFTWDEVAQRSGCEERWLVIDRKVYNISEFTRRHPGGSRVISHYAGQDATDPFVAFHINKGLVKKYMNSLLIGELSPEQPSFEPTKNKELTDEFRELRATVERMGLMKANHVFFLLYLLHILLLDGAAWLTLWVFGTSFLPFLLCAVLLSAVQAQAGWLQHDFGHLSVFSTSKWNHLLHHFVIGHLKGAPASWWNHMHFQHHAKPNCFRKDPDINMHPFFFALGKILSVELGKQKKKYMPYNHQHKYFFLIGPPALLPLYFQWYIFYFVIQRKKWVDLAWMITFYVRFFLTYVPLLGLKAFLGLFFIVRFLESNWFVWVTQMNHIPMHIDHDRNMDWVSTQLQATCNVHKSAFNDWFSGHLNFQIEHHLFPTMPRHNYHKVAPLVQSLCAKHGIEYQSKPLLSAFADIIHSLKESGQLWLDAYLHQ
- Experiment Notes: In vitro measurement of Delta-5-Desaturase inhibitory activity using DGLA-CoA and Arachidonyl-CoA mass spectrometric assays
- Condition Parameters: membrane preparations of D5D-overexpressing HEK293 6E cells; averaged over at least two independent runs
pIC50: −log10 of the molar value.
Entries and their measured pIC50 follow.
Quantity Kind: pIC50

Compound Structure	Quantity Kind	Reported Relation	Measured Result
COc1ccn2c(=O)c(-c3ccc(OCC(F)(F)F)cc3Cl)c(C(F)(F)F)nc2c1	pIC50	=	7.65
Cc1ccc2nc(C(F)(F)F)c(-c3cnn(CC(F)(F)C(F)(F)F)c3)c(=O)n2n1	pIC50	=	6.81
CSc1ccn2c(=O)c(-c3cnn(CC(F)(F)C(F)(F)F)c3)c(C(F)(F)F)nc2c1	pIC50	=	7.73
O=c1c(-c2ccc(OCC(F)(F)F)c(Cl)c2)c(C(F)(F)F)nc2ccccn12	pIC50	=	6.80
C[C@H](O)c1ccn2c(=O)c(-c3cnn(CC(F)(F)C(F)(F)F)c3)c(C(F)(F)F)nc2c1	pIC50	=	6.80
COc1cc(C)n2c(=O)c(-c3cnn(CC(F)(F)C(F)(F)F)c3)c(C(F)(F)F)nc2c1	pIC50	=	5.87
COc1ccn2c(=O)c(-c3cnn(-c4ccc(F)cc4)c3)c(C(F)(F)F)nc2c1	pIC50	=	7.86
Cc1cc2nc(C(F)(F)F)c(-c3cnn(CCC(F)(F)F)c3)c(=O)n2cc1Cl	pIC50	=	7.29
COc1cnc2nc(C(F)(F)F)c(-c3cnn(CC(F)(F)C(F)(F)F)c3)c(=O)n2c1	pIC50	=	6.82
COc1ccn2c(=O)c(-c3ccc(OCC(F)F)cc3F)c(C(F)(F)F)nc2c1	pIC50	=	7.60
O=c1c(-c2ccc(OCC(F)(F)F)cc2)c(C(F)(F)F)nc2cc(OC(F)F)ccn12	pIC50	=	7.10
O=c1c(-c2cnc(OCC(F)(F)F)nc2)c(C(F)(F)F)nc2ccc(C3CC3)cn12	pIC50	<	4.17
O=c1c(-c2cnn(CC(F)(F)C(F)(F)F)c2)c(C(F)(F)F)nc2cc(CF)ccn12	pIC50	=	7.69
COc1ccn2c(=O)c(-c3ccc(OCC(C)(F)F)cc3)c(C(F)(F)F)nc2c1	pIC50	=	7.95
COc1ccn2c(=O)c(-c3ccc(OC(C)(C)C#N)cc3)c(C(F)(F)F)nc2c1	pIC50	=	7.54
COc1ccn2c(=O)c(-c3cn(CCC(F)(F)F)cn3)c(C(F)(F)F)nc2c1	pIC50	=	7.18
